Each entry below lists one item and its recorded inhibition at 0.1 µM value.
ASSAYED_TARGET: uterine OT receptors (Rattus norvegicus, UniProt P70536)
Construct: crude membrane preparation of uteri; from tissue; host or cells: uterus of DES-treated rats, crude membranes
Sequence (P70536 1-388): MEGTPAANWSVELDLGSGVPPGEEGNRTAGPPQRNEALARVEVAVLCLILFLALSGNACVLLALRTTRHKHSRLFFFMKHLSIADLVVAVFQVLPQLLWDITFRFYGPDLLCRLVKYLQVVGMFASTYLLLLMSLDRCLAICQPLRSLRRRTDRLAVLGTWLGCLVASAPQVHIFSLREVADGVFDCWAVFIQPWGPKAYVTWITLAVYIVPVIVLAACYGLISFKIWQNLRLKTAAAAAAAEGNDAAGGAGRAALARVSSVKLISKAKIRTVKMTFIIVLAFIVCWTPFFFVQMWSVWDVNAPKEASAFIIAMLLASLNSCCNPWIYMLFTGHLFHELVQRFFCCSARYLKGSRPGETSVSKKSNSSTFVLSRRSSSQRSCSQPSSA
PROTOCOL: Radioligand binding: competition of [^3 H]oxytocin binding to rat uterine membranes
STUDY_CONDITIONS: read-out: % inhibition at 100 nM
QUANTITY_NAME: inhibition at 0.1 µM (%)

INSERT INTO results (molecule, quantity_name, test_value) VALUES
  ('Cc1ccccc1N1CCN(S(=O)(=O)CC23CCC(CC2(O)C(C)CNCc2ccncc2)C3(C)C)CC1 (stereo not shown)', 'inhibition at 0.1 µM', 35),
  ('COC(=O)C1CC(=O)N(CC(C)C2(O)CC3CCC2(CS(=O)(=O)N2CCN(c4ccccc4C)CC2)C3(C)C)C1 (stereo not shown)', 'inhibition at 0.1 µM', 37),
  ('Cc1ccccc1N1CCN(S(=O)(=O)CC23CCC(CC2C(=O)O)C3(C)C)CC1 (stereo not shown)', 'inhibition at 0.1 µM', 34),
  ('Cc1ccccc1N1CCN(S(=O)(=O)CC23CCC(CC2(O)C(C)CNC(=O)C2CCCN(CCC(=O)O)C2)C3(C)C)CC1 (stereo not shown)', 'inhibition at 0.1 µM', 66);

* * *

Each entry below lists one item and its recorded inhibition at 0.1 µM value.
ASSAYED_TARGET: uterine OT receptors (Rattus norvegicus, UniProt P70536)
Construct: crude membrane preparation of uteri; from tissue; host or cells: uterus of DES-treated rats, crude membranes
Sequence (P70536 1-388): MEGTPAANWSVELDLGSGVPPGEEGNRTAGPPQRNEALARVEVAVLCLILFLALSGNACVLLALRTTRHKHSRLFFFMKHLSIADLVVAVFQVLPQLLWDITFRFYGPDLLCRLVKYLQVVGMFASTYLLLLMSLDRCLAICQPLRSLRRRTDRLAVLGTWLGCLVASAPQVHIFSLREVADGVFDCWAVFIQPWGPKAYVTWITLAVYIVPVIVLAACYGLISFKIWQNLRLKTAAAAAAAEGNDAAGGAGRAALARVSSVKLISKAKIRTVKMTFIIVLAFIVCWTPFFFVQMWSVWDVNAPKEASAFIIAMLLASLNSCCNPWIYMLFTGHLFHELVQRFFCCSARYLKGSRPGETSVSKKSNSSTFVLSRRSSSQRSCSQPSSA
PROTOCOL: Radioligand binding: competition of [^3 H]oxytocin binding to rat uterine membranes
STUDY_CONDITIONS: read-out: % inhibition at 100 nM
QUANTITY_NAME: inhibition at 0.1 µM

INSERT INTO measurements (molecule, test_value) VALUES
  ('Cc1ccccc1N1CCN(S(=O)(=O)CC23CCC(CC2(O)C(C)CNC(=O)C2CCN(CCC(=O)O)CC2)C3(C)C)CC1 (stereo not drawn)', '66%'),
  ('Cc1ccccc1N1CCN(S(=O)(=O)C[C@]23CC[C@H](CC2=CCN)C3(C)C)CC1', '36%'),
  ('Cc1ccccc1N1CCN(S(=O)(=O)CC23CCC(CC2N)C3(C)C)CC1 (stereo not drawn)', '91%');
